Target: T1, PSMA Fab
T1 construct: also called Anti-PSMA Fab; 006 PSMA Fab
Test: phage binding ELISA; biotinylated PSMA Fab on neutravidin plate, clonal phage supernatant, anti-M13 HRP detection; column read as anti-PSMA Fab without PSMA antigen
propertyName: phage binding ELISA signal
Kindly provide the number alone.

The cases that follow already have their phage binding ELISA signal on record.
MVKWCTPPWMCNFE [Phage-2595]; 1.05
MPRWCTPAWMCEAI [Phage-2590]; 1.05
TDKWCVPEWMCMEF [Phage-2591]; 1.05
LSKWCIPDWMCISS [Phage-2599]; 1.04

## Input Item MFKWCTPSWMCERV [Phage-2596] : provide phage binding ELISA signal
## Output 1.05

## Input Item IEKWCMPSWMCEWN [Phage-2601] : provide phage binding ELISA signal
## Output 1.03

## Input Item DGIWCTPRWMCEGM [Phage-2593] : provide phage binding ELISA signal
## Output 1.05

## Input Item HFNWCTPSWMCDVL [Phage-2592] : provide phage binding ELISA signal
## Output 1.05
